Assay: Maximum plasma concentration in rat
Format: ADME, organism-based
outcomeMeasure: Cmax (ng/mL)
Number in ng/mL, nothing else.

Looking up `CS(=O)(=O)c1ccc(-c2occ(Cl)c(=O)c2-c2ccc(F)c(F)c2)cc1` , I see its Cmax listed as 5100

---

Biological target: Prostaglandin G/H synthase 2 (Mus musculus)
Sequence (Q05769 whole entry): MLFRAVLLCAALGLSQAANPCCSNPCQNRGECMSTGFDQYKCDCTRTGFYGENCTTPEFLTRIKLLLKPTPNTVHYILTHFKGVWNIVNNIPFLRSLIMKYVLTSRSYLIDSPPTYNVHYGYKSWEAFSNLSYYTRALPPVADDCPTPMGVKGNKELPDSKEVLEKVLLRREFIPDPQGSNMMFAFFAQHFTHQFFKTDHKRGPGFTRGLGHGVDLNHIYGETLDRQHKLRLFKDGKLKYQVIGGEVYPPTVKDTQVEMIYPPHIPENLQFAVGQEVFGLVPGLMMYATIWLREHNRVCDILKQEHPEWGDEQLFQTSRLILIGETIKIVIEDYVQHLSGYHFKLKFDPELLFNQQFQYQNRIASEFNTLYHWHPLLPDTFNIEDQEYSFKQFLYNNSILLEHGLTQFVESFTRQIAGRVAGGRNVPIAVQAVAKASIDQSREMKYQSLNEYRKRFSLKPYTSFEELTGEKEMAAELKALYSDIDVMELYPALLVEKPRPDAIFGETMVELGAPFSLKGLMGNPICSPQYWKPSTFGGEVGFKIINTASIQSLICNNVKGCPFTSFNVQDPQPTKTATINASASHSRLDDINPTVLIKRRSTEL
Experiment: Inhibitory activity against Prostaglandin G/H synthase 2 from freshly harvested mouse peritoneal macrophages
Kindly supply the reported IC50 values for the records listed here.
Number in nM, nothing else.

Looking up `CS(=O)(=O)c1ccc(-c2occ(Cl)c(=O)c2-c2ccsc2)cc1` , I see its IC50 listed as 736

Looking up `CS(=O)(=O)c1ccc(-c2occ(Cl)c(=O)c2-c2cc(F)cc(F)c2)cc1` , I see its IC50 listed as 2340

Looking up `Cc1ccc(-c2c(-c3ccc(S(C)(=O)=O)cc3)occ(Cl)c2=O)cc1` , I see its IC50 listed as 1760

Looking up `COc1ccc(-c2c(-c3ccc(S(C)(=O)=O)cc3)occ(Cl)c2=O)cc1` , I see its IC50 listed as 6860

Looking up `CCc1ccc(-c2c(-c3ccc(S(C)(=O)=O)cc3)occ(Cl)c2=O)cc1` , I see its IC50 listed as 720

Looking up `CS(=O)(=O)c1ccc(-c2occ(Cl)c(=O)c2-c2ccc(-c3ccccc3)c(F)c2)cc1` , I see its IC50 listed as 87.9

---

Biological target: Prostaglandin G/H synthase 1 (Mus musculus)
Sequence (whole entry): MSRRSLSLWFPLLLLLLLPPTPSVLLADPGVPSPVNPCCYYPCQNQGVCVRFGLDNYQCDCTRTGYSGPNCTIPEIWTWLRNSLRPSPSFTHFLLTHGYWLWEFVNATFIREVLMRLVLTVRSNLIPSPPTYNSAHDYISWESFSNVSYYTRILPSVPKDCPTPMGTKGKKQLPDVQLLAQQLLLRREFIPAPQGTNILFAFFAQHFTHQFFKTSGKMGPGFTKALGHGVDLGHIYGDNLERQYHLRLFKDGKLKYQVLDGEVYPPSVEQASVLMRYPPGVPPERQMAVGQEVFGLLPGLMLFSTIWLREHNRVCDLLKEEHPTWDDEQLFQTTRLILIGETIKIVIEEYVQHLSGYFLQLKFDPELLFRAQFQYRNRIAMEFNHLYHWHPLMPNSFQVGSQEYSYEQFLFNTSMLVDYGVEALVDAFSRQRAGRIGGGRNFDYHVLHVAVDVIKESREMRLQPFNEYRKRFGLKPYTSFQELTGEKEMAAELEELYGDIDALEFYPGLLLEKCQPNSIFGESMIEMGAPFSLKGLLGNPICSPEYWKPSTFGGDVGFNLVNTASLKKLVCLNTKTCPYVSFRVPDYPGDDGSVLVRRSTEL
Test: In vitro percentage inhibitory activity against prostaglandin G/H synthase 1 from freshly harvested mouse peritoneal macrophages at 10 ug/mL
outcomeMeasure: inhibition

Looking up `CS(=O)(=O)c1ccc(-c2occ(Cl)c(=S)c2-c2ccc(F)cc2)cc1` , I see its inhibition listed as < 5%

Looking up `COc1ccc(-c2c(-c3ccc(S(C)(=O)=O)cc3)occ(Cl)c2=O)cc1` , I see its inhibition listed as < 5%

Looking up `CS(=O)(=O)c1ccc(-c2occ(Cl)c(=O)c2-c2cccc(-c3ccccc3)c2)cc1` , I see its inhibition listed as < 5%

Looking up `CS(=O)(=O)c1ccc(-c2occ(Cl)c(=O)c2-c2ccc(F)c(F)c2)cc1` , I see its inhibition listed as 20%

Looking up `Cc1ccc(-c2c(-c3ccc(S(C)(=O)=O)cc3)occ(Cl)c2=O)cc1` , I see its inhibition listed as < 5%

Looking up `CS(=O)(=O)c1ccc(-c2occ(Cl)c(=O)c2-c2ccc(F)cc2)cc1` , I see its inhibition listed as < 5%

Looking up `CS(=O)(=O)c1ccc(-c2occ(Cl)c(=O)c2-c2ccccc2F)cc1` , I see its inhibition listed as 19%

Looking up `CS(=O)(=O)c1ccc(-c2occ(Cl)c(=O)c2-c2ccc(-c3ccccc3)cc2)cc1` , I see its inhibition listed as 68%

Looking up `CCc1ccc(-c2c(-c3ccc(S(C)(=O)=O)cc3)occ(Cl)c2=O)cc1` , I see its inhibition listed as 14%

Looking up `CS(=O)(=O)c1ccc(-c2occ(Cl)c(=O)c2-c2ccsc2)cc1` , I see its inhibition listed as < 5%

---

Molecular target: Prostaglandin G/H synthase 2 (Mus musculus)
Assay: Inhibitory activity against Prostaglandin G/H synthase 2 from freshly harvested mouse peritoneal macrophages
Kindly supply the reported IC50 values for the records listed here.
Number in nM, nothing else.

Looking up `CS(=O)(=O)c1ccc(-c2occ(Cl)c(=O)c2-c2ccccc2)cc1` , I see its IC50 listed as 1080

Looking up `CS(=O)(=O)c1ccc(-c2occ(Cl)c(=O)c2-c2ccc(F)c(F)c2)cc1` , I see its IC50 listed as 1230

Looking up `CS(=O)(=O)c1ccc(-c2occ(Cl)c(=O)c2-c2cccnc2)cc1` , I see its IC50 listed as 7050

Looking up `CS(=O)(=O)c1ccc(-c2occ(Cl)c(=O)c2-c2ccc(F)cc2F)cc1` , I see its IC50 listed as 1390

Looking up `CS(=O)(=O)c1ccc(-c2occ(Cl)c(=O)c2-c2ccc(-c3ccccc3)cc2)cc1` , I see its IC50 listed as 91.6

Looking up `CS(=O)(=O)c1ccc(-c2occ(Cl)c(=O)c2-c2cccc(Cl)c2)cc1` , I see its IC50 listed as 1420

Looking up `CS(=O)(=O)c1ccc(-c2occ(Cl)c(=O)c2-c2cccc(F)c2)cc1` , I see its IC50 listed as 1430

Looking up `CS(=O)(=O)c1ccc(-c2occ(Cl)c(=O)c2-c2ccccc2F)cc1` , I see its IC50 listed as 6310

Looking up `CS(=O)(=O)c1ccc(-c2occ(Cl)c(=S)c2-c2ccc(F)cc2)cc1` , I see its IC50 listed as 836

Looking up `CS(=O)(=O)c1ccc(-c2occc(=O)c2-c2ccc(F)cc2)cc1` , I see its IC50 listed as 2240

---

Target: Prostaglandin G/H synthase 1 (Mus musculus) (UniProt P22437)
Sequence (whole entry): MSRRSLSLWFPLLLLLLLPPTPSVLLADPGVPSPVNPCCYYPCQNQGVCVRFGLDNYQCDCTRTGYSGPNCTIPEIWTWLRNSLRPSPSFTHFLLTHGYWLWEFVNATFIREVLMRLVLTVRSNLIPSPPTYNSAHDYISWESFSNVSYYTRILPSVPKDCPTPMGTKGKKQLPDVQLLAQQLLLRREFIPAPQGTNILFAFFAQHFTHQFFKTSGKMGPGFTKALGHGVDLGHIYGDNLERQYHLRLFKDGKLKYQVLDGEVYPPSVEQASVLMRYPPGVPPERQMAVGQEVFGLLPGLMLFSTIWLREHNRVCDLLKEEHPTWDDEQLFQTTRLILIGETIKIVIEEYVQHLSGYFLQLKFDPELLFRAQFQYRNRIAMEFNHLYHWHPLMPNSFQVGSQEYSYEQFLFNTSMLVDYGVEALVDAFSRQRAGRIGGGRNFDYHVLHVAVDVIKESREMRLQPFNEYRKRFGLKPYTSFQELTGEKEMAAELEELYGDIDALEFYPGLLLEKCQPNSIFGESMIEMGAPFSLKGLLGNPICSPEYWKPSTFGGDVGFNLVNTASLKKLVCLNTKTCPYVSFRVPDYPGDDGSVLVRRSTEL
Assay: In vitro percentage inhibitory activity against prostaglandin G/H synthase 1 from freshly harvested mouse peritoneal macrophages at 10 ug/mL
outcomeMeasure: inhibition

So the reported inhibition for `CS(=O)(=O)c1ccc(-c2occ(Cl)c(=O)c2-c2ccc(F)cc2F)cc1` , on Prostaglandin G/H synthase 1 (Mus musculus) (UniProt P22437), turned out to be 6%

So the reported inhibition for `CS(=O)(=O)c1ccc(-c2occ(Cl)c(=O)c2-c2ccc(-c3ccccc3)c(F)c2)cc1` , on Prostaglandin G/H synthase 1 (Mus musculus) (UniProt P22437), turned out to be 70%

So the reported inhibition for `CS(=O)(=O)c1ccc(-c2occ(Cl)c(=O)c2-c2cc(F)cc(F)c2)cc1` , on Prostaglandin G/H synthase 1 (Mus musculus) (UniProt P22437), turned out to be < 5%

So the reported inhibition for `CS(=O)(=O)c1ccc(-c2occ(Cl)c(=O)c2-c2cccs2)cc1` , on Prostaglandin G/H synthase 1 (Mus musculus) (UniProt P22437), turned out to be < 5%

So the reported inhibition for `CS(=O)(=O)c1ccc(-c2occ(Cl)c(=O)c2-c2cccnc2)cc1` , on Prostaglandin G/H synthase 1 (Mus musculus) (UniProt P22437), turned out to be < 5%

So the reported inhibition for `CS(=O)(=O)c1ccc(-c2occ(Cl)c(=O)c2-c2ccccc2)cc1` , on Prostaglandin G/H synthase 1 (Mus musculus) (UniProt P22437), turned out to be < 5%

So the reported inhibition for `CS(=O)(=O)c1ccc(-c2occ(Cl)c(=O)c2-c2ccc(O)cc2)cc1` , on Prostaglandin G/H synthase 1 (Mus musculus) (UniProt P22437), turned out to be 17%

So the reported inhibition for `CS(=O)(=O)c1ccc(-c2occ(Cl)c(=O)c2-c2ccc(OCc3ccccc3)cc2)cc1` , on Prostaglandin G/H synthase 1 (Mus musculus) (UniProt P22437), turned out to be < 5%

So the reported inhibition for `CS(=O)(=O)c1ccc(-c2occ(Cl)c(=O)c2-c2cccc(Cl)c2)cc1` , on Prostaglandin G/H synthase 1 (Mus musculus) (UniProt P22437), turned out to be < 5%

So the reported inhibition for `CS(=O)(=O)c1ccc(-c2occ(Cl)c(=O)c2-c2cccc(F)c2)cc1` , on Prostaglandin G/H synthase 1 (Mus musculus) (UniProt P22437), turned out to be < 5%

So the reported inhibition for `CS(=O)(=O)c1ccc(-c2occc(=O)c2-c2ccc(F)cc2)cc1` , on Prostaglandin G/H synthase 1 (Mus musculus) (UniProt P22437), turned out to be < 5%

So the reported inhibition for `CS(=O)(=O)c1ccc(-c2occ(Cl)c(=O)c2-c2ccc(Cl)cc2)cc1` , on Prostaglandin G/H synthase 1 (Mus musculus) (UniProt P22437), turned out to be < 5%

Where do these numbers come from? They come from ChEMBL document CHEMBL1147555.
